All values here come from patent US12691070B2.

assay: LNP size and polydispersity index (PDI) by dynamic light scattering; format: physicochemical; details: LNP with cirRNA (SEQ ID NO: 1); in nm (unit assumed)
Bucketed by reported Size, buckets being b0: < 80; b1: ≥ 80 and < 100; b2: ≥ 100

MOLECULE	CLASS LABEL
CCCCCCCCC(CCCCCCCC)OC(=O)CCCCCCCN(CCCCCCCCOC(=O)C(CCCCCC)CCCCCCCC)CCCOC(=O)NCCN1CCN(C)CC1 (centres unmarked)	b1
CCCCCCCCCC(=O)OCCCCCCCN(CCCCCCCCOC(=O)C(CCCCCC)CCCCCCCC)CCOC(=O)NCCN1CCCC1 (centres unmarked)	b1
CCCCCCCCCCC(CCCCCCCC)COC(=O)CCCCCN(CCCCCC(=O)OCC(CCCCCCCC)CCCCCCCCCC)CCCOC(=O)NCCNC(C)C (centres unmarked)	b2
CCCCCCCCCC(=O)OCCCCCCCN(CCCCCCCCOC(=O)C(CCCCCC)CCCCCCCC)CCOC(=O)NCCN(C)C (centres unmarked)	b1
CCCCCCCC/C=C\CCCCCCCCN(CCCCCCCCOC(=O)C(CCCCCC)CCCCCCCC)CCOC(=O)NCc1ncc[nH]1 (centres unmarked)	b0
CCCCCCCCCC(=O)OCCCCCCCN(CCCCCCCCOC(=O)C(CCCCCC)CCCCCCCC)CCCOC(=O)NCCN(C)C (centres unmarked)	b2
CCCCCCCCC(CCCCCC)C(=O)OCCCCCCCCN(CCCCCCCCOC(=O)C(CCCCCC)CCCCCCCC)CCCOC(=O)NCCN1CCCCCC1 (centres unmarked)	b1
CCCCCCCCC(CCCCCCCC)OC(=O)CCCCCCCN(CCCCCCCCOC(=O)C(CCCCCC)CCCCCCCC)CCCOC(=O)NCCCN(CC)CC (centres unmarked)	b2
CCCCC/C=C\CCOC(=O)CCCCCN(CCCCCCCCOC(=O)C(CCCCCC)CCCCCCCC)CCOC(=O)NCCN1CCN(C)CC1 (centres unmarked)	b0
CCCCCCCCC(CCCCCC)C(=O)OCCCCCCCCN(CCCCCCCCOC(=O)C(CCCCCC)CCCCCCCC)CCOC(=O)NCCN(C)C (centres unmarked)	b1
CCCCCCCCCC(=O)OCCCCCCCN(CCCCCCCCOC(=O)C(CCCCCC)CCCCCCCC)CCCOC(=O)NCCCN(C)C (centres unmarked)	b0
CCCCCCCCC(CCCCCCCC)OC(=O)CCCCCCCN(CCCCCCCCOC(=O)C(CCCCCC)CCCCCCCC)CCCNCCN(C)C (centres unmarked)	b2
CCCCCCCCCCCOC(=O)CCCCCN(CCCCCC(=O)OCCCCCCCCCCC)CCOC(=O)NCc1ncc[nH]1	b1
CCCCCCCC/C=C\CCCCCCCCN(CCCCCCCCOC(=O)C(CCCCCC)CCCCCCCC)CCOC(=O)NCCCN(C)C (centres unmarked)	b0
CCCCCCCCCCCOC(=O)CCCCCN(CCCCCCCCOC(=O)C(CCCCCC)CCCCCCCC)CCOC(=O)NCCN(C)C (centres unmarked)	b2
CCCCCCCCCCC(CCCCCCCC)COC(=O)CCCCCN(CCCCCC(=O)OCC(CCCCCCCC)CCCCCCCCCC)CCOC(=O)NCCN(C)C (centres unmarked)	b1
CCCCCCCCC(CCCCCCCC)OC(=O)CCCCCCCN(CCCCCCCCOC(=O)C(CCCCCC)CCCCCCCC)CCCOC(=O)NCCc1ncc[nH]1 (centres unmarked)	b0
